- Tested on: P. falciparum 3D7 parasites
- assay-details: Metabolomic profiling of compound-treated parasites (LC/MS);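 for Metabolite data: UDP-D-Glucuronate: Log2 fold change in abundance versus untreated parasite controls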
- Format: cell-based
reported-endpoint: Metabolite data: UDP-D-Glucuronate
Give bare numbers.

CCc1nc(N)nc(N)c1-c1ccc(Cl)cc1 [Pyrimethamine]; 0.02668
CCN(CC)S(=O)(=O)c1ccc(Cl)c(C(=O)Nc2ccc3nc(C)sc3c2)c1 [MMV019721-1]; 0.09403
O=C(NNC(=O)c1csnn1)c1ccc(Cl)cc1 [MMV084978-1]; 0.1009
O=C1C(O)=C([C@H]2CC[C@H](c3ccc(Cl)cc3)CC2)C(=O)c2ccccc21 [Atovaquone, reference compound]; -0.13
N#Cc1cc(NC(=O)[C@H]2c3ccccc3C(=O)N(CC(F)(F)F)[C@@H]2c2cccnc2)ccc1F [SJ733]; -0.198

Kindly give each listed record's Metabolite data: UDP-D-Glucuronate.
1. C[C@H]1Cc2c([nH]c3cc(Cl)c(F)cc23)[C@@]2(N1)C(=O)Nc1ccc(Cl)cc12 [NITD609]
2. Cc1cc(Nc2ccc3ccccc3c2)n2ncnc2n1 [DSM1]
3. CC1(C)N=C(N)N=C(N)N1OCCCOc1cc(Cl)c(Cl)cc1Cl [WR99210]
4. COc1cc2[nH]c(C)c(-c3ccc(Oc4ccc(OC(F)(F)F)cc4)cc3)c(=O)c2cc1Cl [ELQ-300]

[reply]
1: -0.36; 2: -0.2168; 3: 0.01; 4: 0.002049

====

- Test system: P. falciparum 3D7 parasites
- assay-details: Metabolomic profiling of compound-treated parasites (LC/MS)
- Assay type: cell-based
reported-endpoint: Metabolite data: histidine
Answers are plain numbers.

# example entries with known answers
CC1(C)N=C(N)N=C(N)N1OCCCOc1cc(Cl)c(Cl)cc1Cl [WR99210]; 0
O=C(NNC(=O)c1csnn1)c1ccc(Cl)cc1 [MMV084978-1]; -0.03336
CCN(CC)S(=O)(=O)c1ccc(Cl)c(C(=O)Nc2ccc3nc(C)sc3c2)c1 [MMV019721-1]; -0.01478
CCc1nc(N)nc(N)c1-c1ccc(Cl)cc1 [Pyrimethamine]; 0

Kindly give each listed record's Metabolite data: histidine.
1. Cc1cc(Nc2ccc3ccccc3c2)n2ncnc2n1 [DSM1]
2. N#Cc1cc(NC(=O)[C@H]2c3ccccc3C(=O)N(CC(F)(F)F)[C@@H]2c2cccnc2)ccc1F [SJ733]
3. O=C1C(O)=C([C@H]2CC[C@H](c3ccc(Cl)cc3)CC2)C(=O)c2ccccc21 [Atovaquone, reference compound]
4. COc1cc2[nH]c(C)c(-c3ccc(Oc4ccc(OC(F)(F)F)cc4)cc3)c(=O)c2cc1Cl [ELQ-300]
5. C[C@H]1Cc2c([nH]c3cc(Cl)c(F)cc23)[C@@]2(N1)C(=O)Nc1ccc(Cl)cc12 [NITD609]

[reply]
1: 0; 2: 0; 3: 0; 4: 0; 5: 0

====

- Test system: P. falciparum 3D7-A10
- assay-details: Blood-stage dose-response assay (SYBR Green I, 72 hr), 3D7 / 3D7-A10 parent
- Type: cell-based
- experimental-context: Plasmodium falciparum, blood-stage parasites in vitro, read-out: P. falciparum 3D7 half-maximal effective concentration [EC50]
reported-endpoint: EC50
The reply should consist of the numeric value with the unit placed after it.

Item: `CCN(CC)S(=O)(=O)c1ccc(Cl)c(C(=O)Nc2ccc3nc(C)sc3c2)c1` | EC50: 460 nM

Origin of measurements: paper PMC8878317
